This collection of values is drawn from ChEMBL document CHEMBL1133684.

Biological target: UniProtKB P21554
Test: Compound was tested for inhibition of Adenylyl cyclase in cannabinoid receptor 1 (CB1).
property measured: Ki (nM)
The figure you give is taken to be in nM; do not add the unit.

Query block: Please list Ki recorded for the molecule `CCCCCCC(C)(C)c1cc(O)c2c(c1)OC(C)(C)c1ccc(C)cc1-2`
Result block: 2

---

Target: UniProtKB P34972
Sequence (P34972 whole entry): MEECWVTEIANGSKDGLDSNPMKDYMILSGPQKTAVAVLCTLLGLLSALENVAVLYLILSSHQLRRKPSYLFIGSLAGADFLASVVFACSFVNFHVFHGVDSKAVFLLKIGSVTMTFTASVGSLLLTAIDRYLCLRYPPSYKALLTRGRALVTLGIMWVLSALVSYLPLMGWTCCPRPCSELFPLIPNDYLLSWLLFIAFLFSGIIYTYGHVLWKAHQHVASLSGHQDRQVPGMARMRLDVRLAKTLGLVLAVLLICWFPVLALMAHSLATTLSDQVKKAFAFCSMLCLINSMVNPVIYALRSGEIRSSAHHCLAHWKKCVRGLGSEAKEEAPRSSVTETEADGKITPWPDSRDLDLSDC
Assay: Binding affinity was determined for cannabinoid receptor 2
property measured: Ki

Query block: Please list Ki recorded for the compound `CCCCCCC(C)(C)c1cc(O)c2c(c1)OC(C)(C)c1ccc(C)cc1-2`
Result block: 2.24 nM

---

A collection of molecules and their measured pKi
Target: Cannabinoid receptor 1 (Homo sapiens)
Sequence (P21554 whole entry): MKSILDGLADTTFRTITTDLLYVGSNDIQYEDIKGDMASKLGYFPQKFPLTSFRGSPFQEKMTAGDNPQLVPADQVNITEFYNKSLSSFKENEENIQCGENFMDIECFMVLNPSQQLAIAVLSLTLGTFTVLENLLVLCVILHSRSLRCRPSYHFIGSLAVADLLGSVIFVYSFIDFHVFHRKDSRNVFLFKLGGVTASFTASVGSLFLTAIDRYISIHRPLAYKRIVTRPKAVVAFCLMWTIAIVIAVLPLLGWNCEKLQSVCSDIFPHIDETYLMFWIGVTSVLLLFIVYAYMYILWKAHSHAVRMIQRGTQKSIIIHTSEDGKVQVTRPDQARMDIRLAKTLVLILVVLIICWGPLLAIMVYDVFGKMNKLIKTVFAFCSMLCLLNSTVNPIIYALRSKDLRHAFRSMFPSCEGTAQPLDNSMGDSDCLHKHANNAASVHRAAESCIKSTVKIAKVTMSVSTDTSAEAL
Assay: Binding affinity was determined for Cannabinoid receptor 1
pKi is a log-scale quantity: -log10 of the concentration expressed in molar.

// known answers, use as guide
molecular_string=CCCCCCC(C)(C)c1cc(O)c2c(c1)OC(C)(C)c1ccc(C(=O)OC)cc1-2 property_measured=pKi observed_measurement=7.85
molecular_string=CCCCCCC(C)(C)c1cc(O)c2c(c1)OC(C)(C)c1ccc(C)cc1-2 property_measured=pKi observed_measurement=9.00
molecular_string=CCCCCCC(C)(C)c1ccc2c(c1)OC(C)(C)c1ccc(C)cc1-2 property_measured=pKi observed_measurement=6.36
molecular_string=CCCCCCC(C)(C)c1cc(OC)c2c(c1)OC(C)(C)c1ccc(C(=O)OCCC)cc1-2 property_measured=pKi observed_measurement=5.76

Query block: Please list pKi recorded for the molecule `CCCCCCC(C)(C)c1cc(O)c2c(c1)OC(C)(C)c1ccc(CO)cc1-2`
Result block: 10.00

Query block: Please list pKi recorded for the molecule `CCCC(C)(C)c1ccc(-c2cc(C)ccc2C(C)C)c(O)c1`
Result block: 6.06

Query block: Please list pKi recorded for the molecule `CCCCCCC(C)(C)c1cc(OC)c2c(c1)OC(C)(C)c1ccc(C)cc1-2`
Result block: 6.17

Query block: Please list pKi recorded for the molecule `CCCCCCC(C)(C)c1ccc(-c2cc(C)ccc2C(C)C)c(O)c1`
Result block: 7.48

Query block: Please list pKi recorded for the molecule `CCCCCCC(C)(C)c1ccc2c(c1)OC(C)(C)c1ccc(C(=O)OC)cc1-2`
Result block: 6.25

Query block: Please list pKi recorded for the molecule `CCCCCCC(C)(C)c1ccc2c(c1)OC(C)(C)c1ccc(CO)cc1-2`
Result block: 8.70

Query block: Please list pKi recorded for the molecule `CCCC(C)(C)c1cc(O)c2c(c1)OC(C)(C)c1ccc(C)cc1-2`
Result block: 7.38
